Source: the supplement of paper PMC11451515

# System: SEM cells
# ASSAY_DETAILS: cell viability relative to DMSO control; higher = less cytotoxic
# PROTOCOL_CONDITIONS: RPMI 5 mM glucose + 10% dialyzed FBS; 48 h; 15.4 µM
cell viability vs 60%: less than gives yes; not less than gives no.

Examples from the recorded data:
CCOC(=O)Nc1ccc(NCc2ccc(F)cc2)cc1N: no
Cc1ccc(-n2nc(C(C)(C)C)cc2NC(=O)Nc2ccc(OCCN3CCOCC3)c3ccccc23)cc1: yes
Cl.c1cnc2cc3c(cc2n1)C1CNCC3C1: no

Moving on to another compound below.
(Q) Hello, I'm reviewing records and need to know if cell viability of "CSC1=CC(=CC=C1)NC2=NC3=C(C=N2)/C=C(C(=O)N3C)/C4=C(Cl)C=CC=C4Cl" is below 60%. Could you check?
(A) no

----------
Measured cell viability, listed per entry.
# Tested on: P12-Ichikawa
# ASSAY_DETAILS: cell viability relative to DMSO control; higher = less cytotoxic
# PROTOCOL_CONDITIONS: RPMI 5 mM glucose + 10% dialyzed FBS; 48 h; 5.12 µM
Respond numerically; units are % and should not be typed.

Solved entries (count: 3):
Cc1ccc(NC(=O)C2(c3ccc4c(c3)OC(F)(F)O4)CC2)nc1-c1cccc(C(=O)O)c1: 9.02
CCCCCCCCCCCC(CC1OC(=O)C1CCCCCC)OC(=O)C(CC(C)C)NC=O (centres undefined): 99.3
Cc1cc2c(C(C)C)c(O)c(O)c(C=O)c2c(O)c1-c1c(C)cc2c(C(C)C)c(O)c(O)c(C=O)c2c1O: 110

# input for lookup
Entry Cc1ccc(C(C)(O)c2nc3ccccc3s2)c(C)c1 (centres undefined) — recorded cell viability = 79

----------
# Test system: P12-Ichikawa
# ASSAY_DETAILS: cell viability relative to DMSO control; higher = less cytotoxic
# PROTOCOL_CONDITIONS: RPMI 5 mM glucose + 10% FBS; 48 h; 0.569 µM
Measured cell viability, listed per entry.
Respond numerically; units are % and should not be typed.

CC[C@H]1OC(=O)[C@H](C)[C@@H](O[C@H]2C[C@@](C)(OC)[C@@H](O)[C@H](C)O2)[C@H](C)[C@@H](O[C@@H]2O[C@@H](C)C[C@H](N(C)C)[C@H]2O)[C@](C)(O)C[C@@H](C)C(=O)[C@H](C)[C@@H](O)[C@]1(C)O: 91.7

# input for lookup
Entry "CNC(=O)c1cccc(-c2ccc3c(N4CCOC[C@@H]4C)nc(N4CCOC[C@@H]4C)nc3n2)c1" — recorded cell viability = 55.7

----------
# System: P12-Ichikawa
# ASSAY_DETAILS: cell viability relative to DMSO control; higher = less cytotoxic
# PROTOCOL_CONDITIONS: RPMI 5 mM glucose + 10% FBS; 48 h; 0.000781 µM
Measured cell viability, listed per entry.
Respond numerically; units are % and should not be typed.

Solved entries (count: 4):
CN(C)CCOC(c1ccccc1)c1ccccc1: 96.1
Fc1ccc(C(c2ccc(F)cc2)N2CCN(C/C=C/c3ccccc3)CC2)cc1: 118
C[C@H]1CN(C[C@@H](C)O1)CC(=O)NC2=CC=C3SC4=C(CC3=C2)C=CC=C4\C5=C\C(=O)\C=C(/O5)N6CCOCC6: 97.8
COc1cc(N2CCC(C(N)=O)CC2)ccc1Nc1nc(N)c(Cl)c(Nc2ccccc2[S+](=O)([O-])C(C)C)n1: 81.9

Entry "O=C(Cc1cccc(OC(F)(F)F)c1)Nc1ccc(CCCCc2nnc(NC(=O)Cc3ccccn3)s2)nn1" — recorded cell viability = 121

----------
# Test system: SEM cells
# ASSAY_DETAILS: AUC of viability dose-response curve (% viability x log10 dose units); higher = less sensitive
# PROTOCOL_CONDITIONS: RPMI 5 mM glucose + 10% dialyzed FBS; 48 h
Measured AUC of viability dose-response curve, listed per entry.
Returns: the value as a bare number; no unit string appended.

Solved entries (count: 4):
COc1cc(C(C)C)c(Oc2cnc(NC(CO)CO)nc2N)cc1I: 453
CC(C)C[C@H](CN)CC(=O)O: 451
CCC(=O)O[C@@]1([C@@H](C)C[C@H]2[C@@H]3CCC/4=C/C(=O)/C=C\[C@]4(C)[C@@]3(F)[C@@H](O)C[C@]12C)C(=O)CCl: 308
COCCCOc1cc(C[C@@H](C[C@H](N)[C@@H](O)C[C@H](C(=O)NCC(C)(C)C(N)=O)C(C)C)C(C)C)ccc1OC: 458

# input for lookup
Value (AUC of viability dose-response curve, SEM cells) for record "CO[C@H]1C[C@@H]2CC[C@@H](C)[C@@](O)(O2)C(=O)C(=O)N2CCCC[C@H]2C(=O)O[C@H]([C@H](C)C[C@@H]2CC[C@@H](OP(C)(C)=O)[C@H](OC)C2)CC(=O)[C@H](C)/C=C(\C)[C@@H](O)[C@@H](OC)C(=O)[C@H](C)C[C@H](C)/C=C/C=C/C=C/1C" = 380

----------
Measured cell viability, listed per entry.
# System: SEM cells
# ASSAY_DETAILS: cell viability relative to DMSO control; higher = less cytotoxic
# PROTOCOL_CONDITIONS: RPMI 5 mM glucose + 10% FBS; 48 h; 0.000781 µM
Respond numerically; units are % and should not be typed.

Solved entries (count: 3):
O=[N+]([O-])c1cn2c(n1)OC[C@@H](OCc1ccc(OC(F)(F)F)cc1)C2: 120
CN(C)CCOC(c1ccccc1)c1ccccc1: 107
O=C([O-])Cc1ccccc1Nc1c(Cl)cccc1Cl: 126

# input for lookup
Entry CN(N=O)C(=O)N[C@H]1C(O)OC(CO)[C@@H](O)[C@@H]1O (some centres undefined) — recorded cell viability = 101

----------
# Test system: NOMO1
# ASSAY_DETAILS: cell viability relative to DMSO control; higher = less cytotoxic
# PROTOCOL_CONDITIONS: HPLM + 10% dialyzed FBS; 48 h; 0.569 µM
Measured cell viability, listed per entry.
Respond numerically; units are % and should not be typed.

COC[C@H](NC(=O)c1cnc(C)s1)C(=O)N[C@@H](COC)C(=O)N[C@@H](Cc1ccccc1)C(=O)[C@@]1(C)CO1: 23.5

Entry "ClC1=CC=C(CCCOC/2=N/NC(=O)C(=C2NCC3=CN=CC=C3)/Br)C=C1" — recorded cell viability = 97.9

Entry "C[C@@H]1CC[C@@]2(OC1)O[C@H]3C[C@H]4[C@@H]5C/C=C6/C[C@H](CC[C@]6(C)[C@H]5CC[C@]4(C)[C@H]3[C@@H]2C)O[C@@H]7O[C@H](CO)[C@@H](O[C@@H]8O[C@@H](C)[C@H](O)[C@@H](O)[C@H]8O)[C@H](O)[C@H]7O[C@@H]9O[C@@H](C)[C@H](O)[C@@H](O)[C@H]9O" — recorded cell viability = 141

Entry "CNC(=O)[C@H](Cc1ccccc1)NC(=O)[C@H](CC(C)C)[C@H](CSc1cccs1)C(=O)NO" — recorded cell viability = 97.8

Entry "O=C1NC(=O)[C@@H](c2cn3c4c(cccc24)CCC3)[C@@H]1c1c[nH]c2ccccc12" — recorded cell viability = 89.8

Entry "C1Cc2[nH]nc(-c3nn[nH]n3)c2C1" — recorded cell viability = 131

----------
# System: NOMO1
# ASSAY_DETAILS: cell viability relative to DMSO control; higher = less cytotoxic
# PROTOCOL_CONDITIONS: HPLM + 10% dialyzed FBS; 48 h; 5.12 µM
Measured cell viability, listed per entry.
Respond numerically; units are % and should not be typed.

Entry "CC#C[C@]1(O)CC[C@H]2[C@@H]/3CCC/4=C/C(=O)CCC4=C3[C@H](C[C@]12C)C5=CC=C(C=C5)N(C)C" — recorded cell viability = 79.3

Entry "O=C1c2c(O)cccc2[C@H]([C@@H]2O[C@H](CO)[C@@H](O)[C@H](O)[C@H]2O)c2cc(CO)cc(O)c21" — recorded cell viability = 111

----------
# System: SEM cells
# ASSAY_DETAILS: cell viability relative to DMSO control; higher = less cytotoxic
# PROTOCOL_CONDITIONS: RPMI 5 mM glucose + 10% dialyzed FBS; 48 h; 0.0211 µM
Measured cell viability, listed per entry.
Respond numerically; units are % and should not be typed.

Solved entries (count: 5):
CC1SC/2=C(C(O)=O)/C(=O)C3=CC(=C(C=C3N12)N4CCN(CC4)C\C5=C(C)\OC(=O)O5)F (stereo not drawn): 130
CN1CCCN(C(=O)c2cccc(-c3ccc(/C=C4/C(=O)Nc5ccc(Cl)cc54)o3)c2)CC1: 106
OCc1ccccc1O[C@@H]1O[C@H](CO)[C@@H](O)[C@H](O)[C@H]1O: 121
C#CCN(C)[C@H](C)Cc1ccccc1: 97.9
Nc1ccccc1NC(=O)c1ccc(CNc2nccc(-c3cccnc3)n2)cc1: 106

Entry "OC[C@H]1O[C@@H](Oc2ccc(O)cc2)[C@H](O)[C@@H](O)[C@@H]1O" — recorded cell viability = 87.8

Entry "C[C@@H]1CC[C@@]2(OC1)O[C@H]3C[C@H]4[C@@H]5C/C=C6/C[C@H](CC[C@]6(C)[C@H]5CC[C@]4(C)[C@H]3[C@@H]2C)O[C@@H]7O[C@H](CO)[C@@H](O[C@@H]8O[C@@H](C)[C@H](O)[C@@H](O)[C@H]8O)[C@H](O)[C@H]7O[C@@H]9O[C@@H](C)[C@H](O)[C@@H](O)[C@H]9O" — recorded cell viability = 116

Entry "Cc1cc2c(C(C)C)c(O)c(O)c(C=O)c2c(O)c1-c1c(C)cc2c(C(C)C)c(O)c(O)c(C=O)c2c1O" — recorded cell viability = 109
